- Target desc: human GR (Homo sapiens)
- Sequence (P04150 whole entry): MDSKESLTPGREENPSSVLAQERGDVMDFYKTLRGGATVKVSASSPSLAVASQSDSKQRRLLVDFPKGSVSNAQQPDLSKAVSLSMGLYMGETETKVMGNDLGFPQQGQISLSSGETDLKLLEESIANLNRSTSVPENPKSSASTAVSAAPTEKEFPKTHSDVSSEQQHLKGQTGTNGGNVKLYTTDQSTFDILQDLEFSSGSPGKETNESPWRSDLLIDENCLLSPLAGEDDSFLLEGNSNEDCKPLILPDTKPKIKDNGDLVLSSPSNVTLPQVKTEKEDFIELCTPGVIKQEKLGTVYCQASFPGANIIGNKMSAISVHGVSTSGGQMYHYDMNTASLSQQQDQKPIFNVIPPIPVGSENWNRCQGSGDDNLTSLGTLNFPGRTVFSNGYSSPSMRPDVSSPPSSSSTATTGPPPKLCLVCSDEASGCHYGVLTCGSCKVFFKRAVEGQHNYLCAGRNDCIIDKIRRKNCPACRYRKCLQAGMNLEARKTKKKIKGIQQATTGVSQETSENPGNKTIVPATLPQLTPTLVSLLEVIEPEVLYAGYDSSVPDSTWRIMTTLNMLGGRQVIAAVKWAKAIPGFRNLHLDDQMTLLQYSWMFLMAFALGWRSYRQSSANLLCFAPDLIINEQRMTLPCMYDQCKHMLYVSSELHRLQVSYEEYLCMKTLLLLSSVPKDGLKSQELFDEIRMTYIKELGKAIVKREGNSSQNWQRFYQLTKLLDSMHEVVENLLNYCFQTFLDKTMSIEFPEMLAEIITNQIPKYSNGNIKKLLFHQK
- Assay: Transrepression Assay (GITAR), TNFα-β-lactamase reporter gene in U937 cells
- Format: cell-based
- Set-up: U937 cells contain an endogenous glucocorticoid receptor (GR); endogenous in cells; host or cells: U937 cells stably transfected with the TNF-α promoter/β-lactamase reporter only
- Setup conditions: U-937; Table 1; U937 cells; activity repressed by 100 nM dexamethasone = 100%; read-out: Transrepression U937 Cells GITAR Emax (%)
- Description: Transrepression Assay (GITAR) This assay assesses the ability of test compounds to control transcription from the TNFα-β-lactamase reporter gene in U937 cells, a human myelomonocytic leukemia cell line that naturally expresses the human GR. The assay measures compound dependent-repression of the TNFa promoter linked to a reporter gene. The human U937 cells that had been stably transfected with the TNF-α promoter driving β-lactamase are used for this assay. […]
Measurement label: Emax (%)

In [3]: df
Out[3]:
                                input_smiles              target_desc  unit_abbreviation  measured_result
 0  C[C@]12Cc3cnn(-c4ccc(F)cc4)c3C=C1CC[C@@]2(O)CCc1ccccc1NS(=O)(=O)C1CC1  human GR (Homo sapiens)                  %               79
 1  C[C@]12Cc3cnn(-c4ccc(F)cc4)c3C=C1CC[C@@]2(O)CCc1ccccc1C(=O)N1CCC1  human GR (Homo sapiens)                  %               64
 2  CC(C)(C)CNC(=O)c1c(F)cccc1CC[C@]1(O)CCC2=Cc3c(cnn3-c3ccc(F)cc3)C[C@@]21C  human GR (Homo sapiens)                  %               76
 3  CCNC(=O)c1ccccc1CC[C@]1(O)CCC2=Cc3c(cnn3-c3ccc(F)cc3)C[C@@]21C  human GR (Homo sapiens)                  %               65
 4  CC(C)(C)NC(=O)c1ccccc1CC[C@]1(O)CCC2=Cc3c(cnn3-c3ccc(F)cc3)C[C@@]21C  human GR (Homo sapiens)                  %               79
 5  CCCNC(=O)c1c(F)cccc1CC[C@]1(O)CCC2=Cc3c(cnn3-c3ccc(F)cc3)C[C@@]21C  human GR (Homo sapiens)                  %               72
 6  C[C@]12Cc3cnn(-c4ccc(F)cc4)c3C=C1CC[C@@]2(O)CCc1cccc(F)c1CO  human GR (Homo sapiens)                  %               75
 7  COC(=O)C(C)(C)NC(=O)c1ccccc1CC[C@]1(O)CCC2=Cc3c(cnn3-c3ccc(F)cc3)C[C@@]21C  human GR (Homo sapiens)                  %               74
 8  Cc1cccc(CC[C@]2(O)CCC3=Cc4c(cnn4-c4cccc(F)c4)C[C@@]32C)c1C(N)=O  human GR (Homo sapiens)                  %               78
 9  C[C@]12Cc3cnn(-c4ccc(F)cc4)c3C=C1CC[C@@]2(O)CCc1ccccc1S(C)(=O)=O  human GR (Homo sapiens)                  %               79
10  COC(=O)C(C)(C)NC(=O)c1c(F)cccc1CC[C@]1(O)CCC2=Cc3c(cnn3-c3ccc(F)cc3)C[C@@]21C  human GR (Homo sapiens)                  %               62
11  C[C@]12Cc3cnn(-c4ccc(F)cc4)c3C=C1CC[C@@]2(O)CCc1cccc(F)c1[C@H](N)C(F)(F)F  human GR (Homo sapiens)                  %               76
12  C[C@]12Cc3cnn(-c4ccc(F)cc4)c3C=C1CC[C@@]2(O)CCc1ccccc1C(=O)NCC1CC1  human GR (Homo sapiens)                  %               58
13  COC(=O)C1(NC(=O)c2ccccc2CC[C@]2(O)CCC3=Cc4c(cnn4-c4ccc(F)cc4)C[C@@]32C)CC1  human GR (Homo sapiens)                  %               39
14  C[C@]12Cc3cnn(-c4ccc(F)cc4)c3C=C1CC[C@@]2(O)CCc1cccc(F)c1CNS(=O)(=O)CC(F)(F)F  human GR (Homo sapiens)                  %               66
